Ref: patent US20060135569A1

System: TA98
Assay: Ames test, strain TA98
Format: cell-based
Conditions: 0.5 μg/dish
Listed here: items and their measured TA98 −S9.
// no unit string in output, number only

Known TA98 −S9 results, listed for orientation:
[[record]]
structure = "O=c1c2cc(F)ccc2[se]n1-c1ccccn1"
experimental_result = 93.50

[[record]]
structure = "O=c1c2cc(F)ccc2[se]n1-c1cccnc1"
experimental_result = 64.00

[[record]]
structure = "C/C(=N\\O)c1ccc(-n2[se]c3ccccc3c2=O)cc1"
experimental_result = 52.00

[[record]]
structure = "O=c1c2ccc(Cl)cc2[se]n1-c1ccncc1"
experimental_result = 100.50


Alright, here's another molecule for you.
Recorded result, O=c1c2cc(Cl)ccc2[se]n1-c1ccccn1 , TA98 −S9: 56.33

###

System: TA100
Assay: Ames test, strain TA100
Assay type: cell-based
Conditions: 500 μg/dish
assay.metric: TA100 −S9
// no unit string in output, number only

Known TA100 −S9 results, listed for orientation:
[[record]]
structure = "O=c1c2cc(Cl)ccc2[se]n1-c1ccccn1"
experimental_result = 78.33

[[record]]
structure = "C/C(=N\\O)c1ccc(-n2[se]c3ccccc3c2=O)cc1"
experimental_result = 62.33

[[record]]
structure = "O=c1c2ccc(Cl)cc2[se]n1-c1ccncc1"
experimental_result = 16.5

[[record]]
structure = "O=c1c2cc(F)ccc2[se]n1-c1cccnc1"
experimental_result = 100.00


Alright, here's another compound for you.
Recorded result, O=c1c2cc(F)ccc2[se]n1-c1ccccn1 , TA100 −S9: 72.33

###

System: TA100
Assay: Ames test, strain TA100
Assay type: cell-based
Conditions: 500 μg/dish
Listed here: items and their measured TA100 +S9.
// no unit string in output, number only

Known TA100 +S9 results, listed for orientation:
[[record]]
structure = "O=c1c2ccc(Cl)cc2[se]n1-c1ccncc1"
experimental_result = 0

[[record]]
structure = "O=c1c2cc(F)ccc2[se]n1-c1ccccn1"
experimental_result = 100.67

[[record]]
structure = "O=c1c2cc(F)ccc2[se]n1-c1cccnc1"
experimental_result = 107.67

[[record]]
structure = "O=c1c2cc(Cl)ccc2[se]n1-c1ccccn1"
experimental_result = 160.00


Alright, here's another molecule for you.
Recorded result, C/C(=N\O)c1ccc(-n2[se]c3ccccc3c2=O)cc1 , TA100 +S9: 0

###

System: TA102
Assay: Ames test, strain TA102
Format: cell-based
Conditions: 5 μg/dish
assay.metric: TA102 −S9
// no unit string in output, number only

Known TA102 −S9 results, listed for orientation:
[[record]]
structure = "O=c1c2cc(F)ccc2[se]n1-c1ccccn1"
system = "TA102"
assay_metric = "TA102 −S9"
experimental_result = 224.67

[[record]]
structure = "C/C(=N\\O)c1ccc(-n2[se]c3ccccc3c2=O)cc1"
system = "TA102"
assay_metric = "TA102 −S9"
experimental_result = 246.00

[[record]]
structure = "O=c1c2ccc(Cl)cc2[se]n1-c1ccncc1"
system = "TA102"
assay_metric = "TA102 −S9"
experimental_result = 211.33

[[record]]
structure = "O=c1c2cc(Cl)ccc2[se]n1-c1ccccn1"
system = "TA102"
assay_metric = "TA102 −S9"
experimental_result = 218.67


Alright, here's another compound for you.
Recorded result, O=c1c2cc(F)ccc2[se]n1-c1cccnc1 , TA102 −S9: 270.67
